Hey, just so you know, these numbers are from paper PMC5540273.

- Tested on: IKK-beta
- Construct: gene IKBKB
- assay.context: concentration: 1 μM, replicates: in singlicate; n = 1;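 note: KINOMEscan kinase panel screen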
Assign T to entries whose %Inh meets or exceeds 1%; assign F to the rest.

Decide: %Inh of c1ccc(Oc2ccc(Nc3ccnc4cc(-c5ccc(CN6CCCCC6)o5)ccc34)cc2)nc1 >= 1%?
T

Same question, Cl.Cl.NC(CNC(=O)c1cc(Br)c(-c2ccnc3[nH]ccc23)s1)c1ccccc1 (centres unmarked) this time
T

###

- System: BRAF
- assay.context: concentration: 1 μM, replicates: in singlicate; n = 1
For each of the compounds below, state its %Inh.

Dear colleague, could you please provide %Inh for the compounds listed below?
1. O=C(Nc1n[nH]c2cc(-c3cccs3)ccc12)C1CC1
2. COc1cc(Nc2ccnc3cc(-c4ccncc4)ccc23)cc(OC)c1OC.Cl
3. Cc1ccc(O)cc1Nc1ccnc2cc(-c3ccc(CN4CCCCC4)o3)ccc12
4. COc1cccc2c(-c3ccncc3)c(-c3ccc(F)cc3)nn12
5. O=C(Nc1n[nH]c2nc(-c3ccccc3O)ccc12)C1CC1

["68%", "60%", "22%", "38%", "0%"]
